Consider the following binders and their measured glycan array binding signal (z-score) readings.
# System under test: Neu5Ac(a2-6)Gal(b1-4)GlcNAc(b1-2)Man(a1-3)Man(b1-4)GlcNAc(b1-4)GlcNAc
# Run description: glycan array binding signal (z-score within array); higher = stronger binding
# Test settings: glycan notation: IUPAC condensed, linker removed
This is one part of a sample in which the strongest signals are shown more often than they occur.
// keep it numeric: no unit symbol after the value

Solved entries:
Intelectin-1a (Mus musculus) (protein) AEWSHPQFEKAEENLDTNRWGNSFFSSLPRSCKEIKQEHTKAQDGLYFLRTKNGVIYQTFCDMTTAGGGWTLVASVHENNMRGKCTVGDRWSSQQGNRADYPEGDGNWANYNTFGSAEAATSDDYKNPGYFDIQAENLGIWHVPNKSPLHNWRKSSLLRYRTFTGFLQHLGHNLFGLYKKYPVKYGEGKCWTDNGPALPVVYDFGDARKTASYYSPSGQREFTAGYVQFRVFNNERAASALCAGVRVTGCNTEHHCIGGGGFFPEGNPVQCGDFASFDWDGYGTHNGYSSSRKITEAAVLLFYR : 0.578
HML-Native (Hypnea musciformis), P84871 (protein) QKFCTLDIAPVCCQIVIGGGMYTAGNACMCEGFVSGVGRCENPKECPCTREAQIPSCCSSRWGLVSVTGKCACDCLGGTVAFPEPCPSPY : -0.157

[in] Tell us which glycan array binding signal (z-score) value is on record for EULS2 M4 (Oryza sativa) (protein) MVYCRANPNYAMTARNGAVVLAPANPKDEYQHWIKDMRWSTSIKDEEGYPAFALVNKATGQAIKHSLGQSHPVRLVPYNPEVMDESVLWTESRDVGNGFRCIRMVNNIYLNFDAFHGDKYHGGVRDGTDIVLWKWCEGDSLRWKIQPYYILEQKLISEEDLNSAVDHHHHHH
[out] -0.572
